ASSAY COMMENT: chemical genetic growth profiling, strain panel (AID 1159580);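 note: tested at 20 µM; growth read once vehicle control cultures reached saturation at 30 °C; lower values mean less growth of the strain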
PARTICULARS: S. cerevisiae deletion strains, growth OD, locus YHR079C, strain IRE1, hits give low values
Out of some 5,500 compounds screened, about 2,000 (36%) were called active. Roughly 18% stayed inconclusive and do not appear here. This is one part of the list.
Entries whose normalized growth is below 1 take T; entries at or above 1 take F.

Known results for compounds:
Determine whether this compound shows normalized growth lower than 1 (ties excluded): `O=S(=O)(Nc1c(F)cccc1F)c1ccc(Cl)c(Cl)c1` T

Determine whether this compound shows normalized growth lower than 1 (ties excluded): `Cc1cc2nc3c(=O)[nH]c(=O)nc-3n(C[C@@H](O)[C@@H](O)[C@@H](O)COP(=O)(O)O)c2cc1C` F

Now consider the entry below.
Determine whether this compound shows normalized growth lower than 1 (ties excluded): `NS(=O)(=O)c1cc2c(cc1Cl)NCNS2(=O)=O` T
